Reference source for all entries: PubChem BioAssay AID1919008

Tested on: DMS-114 complex spheroids with HUVEC/MSC, growth % test/control
protocol description: Anticancer human tumor DMS-114 cell line growth inhibition [AhR]; active = viability on the fitted dose curve at most 10% of control; inactive = the rest;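 note: spheroids exposed to agents for 7 days before readout; 100% = DMSO vehicle control wells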
setup conditions: second compound 0.316 µM; first compound 0.316 µM
Excerpt: Multicellular complex tumor spheroid response to aryl hydrocarbon receptor antagonists in combination with a variety of drugs and investigational agents in selected tumor cell lines […] Compounds. […] If the clinical Cmax for an agent had not been determined, the highest concentration tested was 10 microM (Table 1). […]
Form entry, call: pick from active, inactive

Enquiry: How was CC1(C)CCC(CN2CCN(c3ccc(C(=O)NS(=O)(=O)c4ccc(NCC5CCOCC5)c([N+](=O)[O-])c4)c(Oc4cnc5[nH]ccc5c4)c3)CC2)=C(c2ccc(Cl)cc2)C1 + Cc1ccccc1N=Nc1ccc(NC(=O)c2ccnn2C)c(C)c1 classified in this test?
Return: inactive

Enquiry: How was O=C(C=Cc1cccc(S(=O)(=O)Nc2ccccc2)c1)NO + Cc1ccccc1N=Nc1ccc(NC(=O)c2ccnn2C)c(C)c1 classified in this test?
Return: inactive

Enquiry: How was COc1ccc([C@@H](O)c2cc(-c3ncnc4cc(N5CCOCC5)ccc34)c(F)cc2Cl)nn1 + Cc1ccccc1N=Nc1ccc(NC(=O)c2ccnn2C)c(C)c1 classified in this test?
Return: inactive

Enquiry: How was CC1COCCN1c1cc(-c2ccnn2C)c2ccnc(-c3ccn[nH]3)c2n1 (configuration not stated) + CC(CO)NC(=O)c1cc(-c2ccc(Cl)cc2)nn(-c2cnn(C)c2)c1=O classified in this test?
Return: inactive

Enquiry: How was NS(=O)(=O)OCC1CC(n2ccc3c(NC4CCc5ccccc54)ncnc32)CC1O (configuration not stated) + Cc1ccccc1N=Nc1ccc(NC(=O)c2ccnn2C)c(C)c1 classified in this test?
Return: inactive

Enquiry: How was CC1COCCN1c1cc(-c2ccnn2C)c2ccnc(-c3ccn[nH]3)c2n1 (configuration not stated) + Cc1ccccc1N=Nc1ccc(NC(=O)c2ccnn2C)c(C)c1 classified in this test?
Return: inactive

Enquiry: How was Nc1ccn(C2OC(CO)C(O)C2(F)F)c(=O)n1 (configuration not stated) + Cc1cncc(-c2nc(NCCc3c[nH]c4ccccc34)c3ncn(C(C)C)c3n2)c1 classified in this test?
Return: active

* * *

System: DMS-114 complex spheroids with HUVEC/MSC, growth % test/control
protocol description: Anticancer human tumor DMS-114 cell line growth inhibition [AhR];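 note: spheroids exposed to agents for 7 days before readout; 100% = DMSO vehicle control wells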
setup conditions: second compound 0.316 µM; first compound 0.0316 µM; hits give low values
reported property: viability, T/C (%)
Provide only the numeric value, understood in %.

Enquiry: Annotate the molecule Nc1ccn(C2OC(CO)C(O)C2(F)F)c(=O)n1 (stereo unspecified) + Cc1cncc(-c2nc(NCCc3c[nH]c4ccccc34)c3ncn(C(C)C)c3n2)c1 with its measured viability, T/C.
Return: 8.17

Enquiry: Annotate the molecule NS(=O)(=O)OCC1CC(n2ccc3c(NC4CCc5ccccc54)ncnc32)CC1O (stereo unspecified) + CC(CO)NC(=O)c1cc(-c2ccc(Cl)cc2)nn(-c2cnn(C)c2)c1=O with its measured viability, T/C.
Return: 53.4

Enquiry: Annotate the molecule COc1cc(Nc2ncc3c(n2)-c2ccc(Cl)cc2C(c2c(F)cccc2OC)=NC3)ccc1C(=O)O + Cc1ccccc1N=Nc1ccc(NC(=O)c2ccnn2C)c(C)c1 with its measured viability, T/C.
Return: 55

Enquiry: Annotate the molecule COc1ccc([C@@H](O)c2cc(-c3ncnc4cc(N5CCOCC5)ccc34)c(F)cc2Cl)nn1 + Cc1cncc(-c2nc(NCCc3c[nH]c4ccccc34)c3ncn(C(C)C)c3n2)c1 with its measured viability, T/C.
Return: 101

Enquiry: Annotate the molecule COc1cc(C2c3cc4c(cc3C(OC3OC5COC(C)OC5C(O)C3O)C3COC(=O)C23)OCO4)cc(OC)c1O (stereo unspecified) + Cc1ccccc1N=Nc1ccc(NC(=O)c2ccnn2C)c(C)c1 with its measured viability, T/C.
Return: 105

Enquiry: Annotate the molecule CC[C@@]1(O)C(=O)OCc2c1cc1n(c2=O)Cc2cc3c(CN(C)C)c(O)ccc3nc2-1 + CC(CO)NC(=O)c1cc(-c2ccc(Cl)cc2)nn(-c2cnn(C)c2)c1=O with its measured viability, T/C.
Return: 46

Enquiry: Annotate the molecule COc1cc(C2c3cc4c(cc3C(OC3OC5COC(C)OC5C(O)C3O)C3COC(=O)C23)OCO4)cc(OC)c1O (stereo unspecified) + CC(CO)NC(=O)c1cc(-c2ccc(Cl)cc2)nn(-c2cnn(C)c2)c1=O with its measured viability, T/C.
Return: 95.9

Enquiry: Annotate the molecule NS(=O)(=O)OCC1CC(n2ccc3c(NC4CCc5ccccc54)ncnc32)CC1O (stereo unspecified) + Cc1cncc(-c2nc(NCCc3c[nH]c4ccccc34)c3ncn(C(C)C)c3n2)c1 with its measured viability, T/C.
Return: 56.9

Enquiry: Annotate the molecule O=C(c1cc(Cc2n[nH]c(=O)c3ccccc23)ccc1F)N1CCN(C(=O)C2CC2)CC1 + Cc1cncc(-c2nc(NCCc3c[nH]c4ccccc34)c3ncn(C(C)C)c3n2)c1 with its measured viability, T/C.
Return: 108

Enquiry: Annotate the molecule O=C(C=Cc1cccc(S(=O)(=O)Nc2ccccc2)c1)NO + CC(CO)NC(=O)c1cc(-c2ccc(Cl)cc2)nn(-c2cnn(C)c2)c1=O with its measured viability, T/C.
Return: 77.6

Enquiry: Annotate the molecule CC[C@@]1(O)C(=O)OCc2c1cc1n(c2=O)Cc2cc3c(CN(C)C)c(O)ccc3nc2-1 + Cc1ccccc1N=Nc1ccc(NC(=O)c2ccnn2C)c(C)c1 with its measured viability, T/C.
Return: 61.7

Enquiry: Annotate the molecule CC1COCCN1c1cc(-c2ccnn2C)c2ccnc(-c3ccn[nH]3)c2n1 (stereo unspecified) + Cc1ccccc1N=Nc1ccc(NC(=O)c2ccnn2C)c(C)c1 with its measured viability, T/C.
Return: 95.2

Enquiry: Annotate the molecule O=C(C=Cc1cccc(S(=O)(=O)Nc2ccccc2)c1)NO + Cc1cncc(-c2nc(NCCc3c[nH]c4ccccc34)c3ncn(C(C)C)c3n2)c1 with its measured viability, T/C.
Return: 84.3

Enquiry: Annotate the molecule Nc1ccccc1NC(=O)c1ccc(CNC(=O)OCc2cccnc2)cc1 + Cc1cncc(-c2nc(NCCc3c[nH]c4ccccc34)c3ncn(C(C)C)c3n2)c1 with its measured viability, T/C.
Return: 89.1

Enquiry: Annotate the molecule CC1COCCN1c1cc(C2(S(C)(=N)=O)CC2)nc(-c2ccnc3[nH]ccc23)n1 (stereo unspecified) + Cc1cncc(-c2nc(NCCc3c[nH]c4ccccc34)c3ncn(C(C)C)c3n2)c1 with its measured viability, T/C.
Return: 105

Enquiry: Annotate the molecule Cn1ncnc1C1c2n[nH]c(=O)c3cc(F)cc(c23)NC1c1ccc(F)cc1 (stereo unspecified) + Cc1ccccc1N=Nc1ccc(NC(=O)c2ccnn2C)c(C)c1 with its measured viability, T/C.
Return: 104
